- TEST_SUMMARY: NCI Yeast Anticancer Drug Screen. Data for the bub3 strain (AID 167)
- CONDITION_LABEL: S. cerevisiae bub3 mutant strain, at 50.0 µM, hits give high values
Compounds without any hit were thinned out: in the full panel of roughly 79,000, 15% have a hit.
Entries and their growth inhibition
Quick reminder: number only, in %, skip the unit.

Look over these answered cases.
Value of measured growth inhibition for the entry CN(C)CCNC(=O)c1cccc(C(C)(C)C)c1[N+](=O)[O-] : -19.1

Value of measured growth inhibition for the entry CCCCN=C1NC(N)=NC(C)(C)N1 : -13.3

Value of measured growth inhibition for the entry ClC(Cl)=C(Cl)C1(Cl)CC1COCc1ccccc1 (stereo not given) : -7.85

Value of measured growth inhibition for the entry CC(C)(OC(=O)Nc1ccccc1)c1ccc([N+](=O)[O-])cc1 : -22.7

Value of measured growth inhibition for the entry O=[N+]([O-])c1c(O)c(O)c2ccccc2c1Nc1ccccc1 : 11.7

***
Value of measured growth inhibition for the entry COc1cccc(NC(=O)C(=O)C(C(C)=O)c2nc3ccc(Cl)cc3[nH]c2=O)c1 (stereo not given) : 2.25

* * *

- TEST_SUMMARY: NCI Yeast Anticancer Drug Screen. Data for the mec2-1 strain (AID 157)
- CONDITION_LABEL: S. cerevisiae mec2-1 strain, at 50.0 µM, hits give high values
Compounds without any hit were thinned out: in the full panel of roughly 79,000, 15% have a hit.
PROPERTY_NAME: growth inhibition (%)
Quick reminder: number only, in %, skip the unit.

Value of measured growth inhibition for the entry COc1ccc(CC(NC(=O)OCc2ccccc2)C(=O)O)cc1 (stereo not given) : 4.15

Value of measured growth inhibition for the entry CCN1c2ccccc2CC(CCN(C)Cc2ccccc2)(C(N)=O)c2ccccc21 (stereo not given) : -1.15

Value of measured growth inhibition for the entry CCCCCCC(=O)OC(C)CC(C)C (stereo not given) : 2.75

Value of measured growth inhibition for the entry CS(=O)(=O)OCC1OC(n2ccc(NC(=O)c3ccccc3)nc2=O)CC1OS(C)(=O)=O (stereo not given) : -16.9

Read the next record carefully.
Value of measured growth inhibition for the entry CC1Cc2cc(O)ccc2C2[C@@H]1C1CC[C@H](O)[C@@]1(C)C[C@@H]2O[N+](=O)[O-] (stereo not given in full) : 19.7

* * *

Entries and their growth inhibition
- TEST_SUMMARY: NCI Yeast Anticancer Drug Screen. Data for the cln2 rad14 strain (AID 165);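 note: 0% = growth equal to vehicle treated cultures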
- CONDITION_LABEL: S. cerevisiae cln2 rad14 strain, at 50.0 µM, hits give high values
This is part of a sample that, as a whole, favours compounds with a hit. Of some 79,000 tested, about 15% had one in any assay.
Quick reminder: number only, in %, skip the unit.

Look over these answered cases.
Value of measured growth inhibition for the entry O=C1CCCC2(c3ccc([N+](=O)[O-])cc3)C1C1C(=O)CCCC12c1ccc([N+](=O)[O-])cc1 (stereo unspecified) : 12.6

Value of measured growth inhibition for the entry CCCCCCCCC[N+]12CC[N+](CCCCCCCCC)(CC1)CC2 : 2.15

Value of measured growth inhibition for the entry C(=NCCSSCCN=Cc1ccccc1)c1ccccc1 : 10.1

Value of measured growth inhibition for the entry O=C1c2ccccc2C(=O)N1Nc1ccccc1 : -8.1

Value of measured growth inhibition for the entry CC(C)CCCC(C)C1CCC2C3CC=C4C(C)(C)C(OC(=O)c5ccccc5)CCC4(C)C3CCC12C (stereo unspecified) : -4.35

***
Value of measured growth inhibition for the entry COc1c2ccoc2nc2c(O)c3c(c(CC=C(C)C)c12)OCO3 : 16.2

Value of measured growth inhibition for the entry COc1ccc(OC)c(Cc2ccc(NC(C)=O)cc2)c1 : -38.2

Value of measured growth inhibition for the entry CC(C)c1ccc(/C=C2/C=C(c3ccc4ccccc4c3)OC2=O)cc1 : -3.75

Value of measured growth inhibition for the entry COC1CC(OC2C(C)OC(OC3C(C)OC(OC4C(O)CC(O[C@H]5CC[C@@]6(C)C(=CC[C@]7(O)[C@@H]6C[C@@H](OC(=O)/C=C/c6ccccc6)[C@@]6(C)[C@]7(O)CC[C@@]6(O)C(C)=O)C5)OC4C)CC3OC)CC2OC)OC(C)C1O (stereo partly specified) : 16.2

Value of measured growth inhibition for the entry O=C(NCC(CC(NC(=O)c1ccccc1)C(=O)O)NC(=O)c1ccccc1)c1ccccc1 (stereo unspecified) : 16

Value of measured growth inhibition for the entry NNC(=O)C(=O)NN=C(C(Cl)(Cl)CO)C(Cl)(Cl)CO : 14.1

Value of measured growth inhibition for the entry N#C/C(=N\Nc1ccc(F)cc1)C(=O)C1CC1 : 11.3

Value of measured growth inhibition for the entry CCC(C#N)NC(=O)NC(C#N)CC (stereo unspecified) : -1.6

Value of measured growth inhibition for the entry NC(=O)c1ccc(Cl)cc1 : 14.4

Value of measured growth inhibition for the entry COc1cc(C=C2C(=O)OC(C)(C)OC2=O)cc(OC)c1OC : 24.3

Value of measured growth inhibition for the entry NN1C(=O)Cc2ccc(Cl)cc21 : -33.5

Value of measured growth inhibition for the entry O=C(c1ccccc1)c1cccc(C(=O)c2ccccc2)n1 : 1.9

Value of measured growth inhibition for the entry CCOc1ccc(N=Nc2c(C)nc(N)nc2-c2ccccc2)cc1 : -4.75

Value of measured growth inhibition for the entry Cc1ccc(S(=O)(=O)NNS(=O)(=O)c2ccc(C)cc2)cc1 : -5.95

Value of measured growth inhibition for the entry Cc1c(C)n(S(=O)(=O)c2ccccc2)c2ccccc12 : 27.9

Value of measured growth inhibition for the entry Cc1cccc(C)c1NC(=O)CNc1ncccn1 : -4.7

Value of measured growth inhibition for the entry CC1COCC(C)N1CC(OCc1ccccc1)c1ccccc1 (stereo unspecified) : -52.2

Value of measured growth inhibition for the entry CCN(CC)CCc1c2c(nc3ccccc13)C(=O)c1cccnc1C2=O : 74.4

Value of measured growth inhibition for the entry CCN(CC)CCC(=O)c1ccc(C)cc1 : 11.2

* * *

- TEST_SUMMARY: NCI Yeast Anticancer Drug Screen. Data for the bub3 strain (AID 167)
- CONDITION_LABEL: S. cerevisiae bub3 mutant strain, at 50.0 µM
The panel holds about 79,000 compounds, 15% with a hit somewhere; the sample as a whole holds those more often. Calls of active or inactive are those of the source. Rule as the data show it: active = growth inhibition above about 70%; inactive = the rest.
Pick from true for active, false for inactive when you respond.

See these solved cases before continuing.
Short answer needed: outcome of this test for CCN(CC)c1ccc(N=C2C=C(C(=O)Nc3ccccc3)C(=O)c3ccccc32)cc1 ? false

Short answer needed: outcome of this test for Cc1c(F)c(N)c2c(=O)cc(-c3ccc(N)c(F)c3)oc2c1F ? false

Short answer needed: outcome of this test for CCCCCCCCCCCCCCCCCC(=O)CCCCCCCCCCCCCCCCC ? false

Shift focus to the following entry.
Short answer needed: outcome of this test for COC1OC(COC(=O)Nc2ccccc2)C2OC12 (centres undefined) ? false

* * *

- TEST_SUMMARY: NCI Yeast Anticancer Drug Screen. Data for the mlh1 rad18 strain (AID 175)
- CONDITION_LABEL: S. cerevisiae mlh1 rad18 strain growth inhibition; at 50.0 µM; hits give high values
Compounds without any hit were thinned out: in the full panel of roughly 79,000, 15% have a hit.
PROPERTY_NAME: growth inhibition (%)
Quick reminder: number only, in %, skip the unit.

Look over these answered cases.
Value of measured growth inhibition for the entry CC(=O)OC1=NCC(OC(C)=O)=NC1 : 6.5

Value of measured growth inhibition for the entry Cc1ccc2c(c1)N=C(Nc1ccccc1)N=S2(C)=O (stereo unspecified) : -41.5

Value of measured growth inhibition for the entry CC1OC(OC23C(=O)CC(C)(O)CC2(O)C=CC2=C3C(=O)c3ccc(C4CC(OC5CCC(OC6CC(O)C(O)C(C)O6)C(C)O5)C(O)C(C)O4)c(O)c3C2=O)CCC1O (stereo unspecified) : 18.1

***
Value of measured growth inhibition for the entry CCCCCCC1OCC(C)([N+](=O)[O-])CO1 (stereo unspecified) : 5.65

Value of measured growth inhibition for the entry O=C(NCC1CC1)NC(=O)c1ccccc1F : -16.9

Value of measured growth inhibition for the entry C=CCOC(=O)COC(=O)C(C)(C)OC(C)=O : -5.9

* * *

- TEST_SUMMARY: NCI Yeast Anticancer Drug Screen. Data for the mlh1 rad18 strain (AID 175)
- CONDITION_LABEL: S. cerevisiae mlh1 rad18 strain growth inhibition; at 50.0 µM
The panel holds about 79,000 compounds, 15% with a hit somewhere; the sample as a whole holds those more often. Activity calls are given as the source filed them. Cut-off read from the data, not from the text of the source: active = growth inhibition above about 70%; inactive = the rest.
Pick from active, inactive when you respond.

See these solved cases before continuing.
Short answer needed: outcome of this test for O=C(CCl)NC(=O)NC1=C(Cl)C(=O)c2ccccc2C1=O ? active

Short answer needed: outcome of this test for O=C1CCCCCCCCCCOCCCCO1 ? inactive

Short answer needed: outcome of this test for C/C(CC(=O)Nc1cc(C)ccc1C)=N/N=C(N)N ? inactive

Short answer needed: outcome of this test for C(=Nc1ccccc1)Nc1ccccc1 ? inactive

***
Short answer needed: outcome of this test for Cc1ccc(S(=O)(=O)NCc2cccc([N+](=O)[O-])c2)cc1 ? inactive

Short answer needed: outcome of this test for CC(=O)C1COC(O)C1C (configuration not stated) ? inactive

Short answer needed: outcome of this test for COc1c(C)c(=O)n2c3ccccc3n(C)c2c1C#N ? inactive

Short answer needed: outcome of this test for COc1cc(Cl)c(CC(=O)c2c[nH]c3ccccc23)cc1OC ? inactive

Short answer needed: outcome of this test for c1ccc2oc(C34OC5CC(CC(C5)O3)O4)nc2c1 ? inactive

Short answer needed: outcome of this test for O=C(NC(=S)Nc1ccc(Cl)cc1C(=O)c1ccccc1)c1ccc(Cl)cc1Cl ? inactive

Short answer needed: outcome of this test for CS(=O)(=O)OCC1C2CCC(CC2)C1COS(C)(=O)=O (configuration not stated) ? inactive

Short answer needed: outcome of this test for O=C(O)c1ccccc1C(NC(=O)N1C(=O)C=CC1=O)NC(=O)N1C(=O)C=CC1=O ? inactive
